Exercise: for every item that follows, state its recorded log10 of Kd.
Target: T1, Dimeric Mouse Ang-2FD conjugated to human IgG1 (mouse (Mus musculus); human)
T1 construct: also called Mouse Ang-2FD-hFc
T1 sequence (chain, as listed by the source limits assumed): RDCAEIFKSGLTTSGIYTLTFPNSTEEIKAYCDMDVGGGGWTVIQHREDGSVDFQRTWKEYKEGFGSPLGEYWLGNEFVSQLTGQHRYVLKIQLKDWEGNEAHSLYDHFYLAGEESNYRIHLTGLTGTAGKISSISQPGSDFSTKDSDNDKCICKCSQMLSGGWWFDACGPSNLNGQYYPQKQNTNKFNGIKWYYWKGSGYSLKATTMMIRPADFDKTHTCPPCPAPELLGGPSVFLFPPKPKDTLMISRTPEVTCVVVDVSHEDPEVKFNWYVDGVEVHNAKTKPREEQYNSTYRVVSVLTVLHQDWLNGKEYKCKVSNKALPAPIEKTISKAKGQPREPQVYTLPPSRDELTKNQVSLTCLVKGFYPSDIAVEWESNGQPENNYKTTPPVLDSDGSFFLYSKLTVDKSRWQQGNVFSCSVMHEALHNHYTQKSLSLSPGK
Experiment: SPR, captured Ab, RT
Hey, these are logged values: log10 of Kd, nM being the unit before logging.

The examples below pair each entry with its known result.
BINDER	log10 of Kd
H1M724N (antibody, V domains shown) VH: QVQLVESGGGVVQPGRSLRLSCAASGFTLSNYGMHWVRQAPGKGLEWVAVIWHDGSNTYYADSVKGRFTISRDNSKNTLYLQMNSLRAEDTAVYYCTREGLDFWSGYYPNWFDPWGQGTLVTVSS VL: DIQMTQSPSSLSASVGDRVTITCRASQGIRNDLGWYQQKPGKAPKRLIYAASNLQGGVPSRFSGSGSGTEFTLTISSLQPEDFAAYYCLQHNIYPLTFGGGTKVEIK	-0.16
H1M732N (antibody, V domains shown) VH: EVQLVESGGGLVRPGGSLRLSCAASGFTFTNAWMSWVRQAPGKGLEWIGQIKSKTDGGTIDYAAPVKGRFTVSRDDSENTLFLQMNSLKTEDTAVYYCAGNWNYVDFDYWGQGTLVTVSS VL: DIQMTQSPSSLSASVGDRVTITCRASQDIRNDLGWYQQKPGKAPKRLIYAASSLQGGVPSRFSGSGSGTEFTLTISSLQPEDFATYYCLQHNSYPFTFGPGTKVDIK	0.23

I'm hoping you can list log10 of Kd for every binder here, please.
1. H1H750N (antibody, V domains shown) VH: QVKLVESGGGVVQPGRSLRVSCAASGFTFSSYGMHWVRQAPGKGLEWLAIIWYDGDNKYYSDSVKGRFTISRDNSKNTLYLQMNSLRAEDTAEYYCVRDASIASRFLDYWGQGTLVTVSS VL: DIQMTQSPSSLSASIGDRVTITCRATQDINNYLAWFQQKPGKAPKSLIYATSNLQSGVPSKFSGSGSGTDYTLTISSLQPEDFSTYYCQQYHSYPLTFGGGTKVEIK
2. H1H743N (antibody, V domains shown) VH: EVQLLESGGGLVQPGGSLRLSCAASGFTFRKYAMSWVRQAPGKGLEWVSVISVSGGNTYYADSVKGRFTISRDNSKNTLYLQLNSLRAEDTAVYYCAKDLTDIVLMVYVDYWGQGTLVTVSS VL: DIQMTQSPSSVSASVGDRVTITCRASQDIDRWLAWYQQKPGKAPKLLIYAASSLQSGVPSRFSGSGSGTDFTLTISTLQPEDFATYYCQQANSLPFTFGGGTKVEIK
3. H1H690P (antibody, V domains shown) VH: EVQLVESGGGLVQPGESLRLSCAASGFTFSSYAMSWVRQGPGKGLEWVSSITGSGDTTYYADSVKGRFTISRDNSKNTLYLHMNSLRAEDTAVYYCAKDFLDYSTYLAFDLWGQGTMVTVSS VL: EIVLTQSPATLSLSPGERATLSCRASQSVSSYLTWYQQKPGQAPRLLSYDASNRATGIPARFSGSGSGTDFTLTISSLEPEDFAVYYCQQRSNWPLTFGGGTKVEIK
4. H2M744N (antibody, V domains shown) VH: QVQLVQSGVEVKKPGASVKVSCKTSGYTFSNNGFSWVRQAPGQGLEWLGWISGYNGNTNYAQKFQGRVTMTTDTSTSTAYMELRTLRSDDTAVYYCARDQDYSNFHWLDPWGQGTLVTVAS VL: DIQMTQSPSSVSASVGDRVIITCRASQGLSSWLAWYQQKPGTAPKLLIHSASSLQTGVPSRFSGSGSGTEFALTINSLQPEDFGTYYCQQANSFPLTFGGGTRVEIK

Reply |
[-0.66, -0.91, -1.04, -0.84]

I'm hoping you can list log10 of Kd for every binder here, please.
1. H2M749N (antibody, V domains shown, also called H1M749N; H1M749) VH: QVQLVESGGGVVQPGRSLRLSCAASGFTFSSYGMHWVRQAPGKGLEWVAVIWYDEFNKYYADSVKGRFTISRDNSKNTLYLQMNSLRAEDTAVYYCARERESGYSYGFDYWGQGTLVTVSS VL: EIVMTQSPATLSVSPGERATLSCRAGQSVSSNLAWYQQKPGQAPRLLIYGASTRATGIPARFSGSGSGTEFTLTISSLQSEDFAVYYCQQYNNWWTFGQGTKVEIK
2. H1H685P (antibody, V domains shown) VH: EVQLVESGGGLVQPGGSLRLSCAASGFTFSSYDIHWVRQATGKGLEWVSAIGPAGDTYYPGSVKGRFTISRENAKNSLYLQMNSLRAGDTAVYYCARGLITFGGLIAPFDYWGQGTLVTVSS VL: EIVLTQSPGTLSLSPGERATLSCRASQSVSSTYLAWYQQKPGQAPRLLIYGASSRATGIPDRFSGSGSGTDFTLTISRLEPEDFAVYYCQHYDNSQTFGQGTKVEIK
3. H1H693P (antibody, V domains shown) VH: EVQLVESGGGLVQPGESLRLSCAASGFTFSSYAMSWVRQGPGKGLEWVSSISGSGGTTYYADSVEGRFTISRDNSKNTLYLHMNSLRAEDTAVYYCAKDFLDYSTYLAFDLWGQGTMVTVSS VL: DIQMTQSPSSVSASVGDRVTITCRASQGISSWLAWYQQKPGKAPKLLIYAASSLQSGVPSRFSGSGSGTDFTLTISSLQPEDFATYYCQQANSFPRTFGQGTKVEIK

Reply |
-0.28
-0.83
-0.35

Ask | log10 of Kd for H1M728N (antibody, V domains shown) VH: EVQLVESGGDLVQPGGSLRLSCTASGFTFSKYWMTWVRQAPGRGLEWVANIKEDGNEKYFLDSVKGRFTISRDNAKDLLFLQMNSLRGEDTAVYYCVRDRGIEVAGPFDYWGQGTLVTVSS VL: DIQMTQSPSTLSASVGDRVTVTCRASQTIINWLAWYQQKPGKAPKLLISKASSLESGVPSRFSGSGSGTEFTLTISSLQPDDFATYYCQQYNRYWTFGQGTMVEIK ?
Reply | 0.75

Where these numbers come from: patent US20140112930A1
